Sourced from paper PMC10397247

Target: T1, 4H58-AA
T1 chain: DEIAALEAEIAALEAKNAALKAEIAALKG
Experiment: two-hybrid library CCmax;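 note: natural log of median RNA to DNA barcode read ratio; higher means stronger binding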
Details: mean of both orientations
Measured property: interaction score

The examples below pair each entry with its known result.
# Binder, Measured property, Result
records = [
    ("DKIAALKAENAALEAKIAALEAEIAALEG [4H2721-AA]", "interaction score", 0.0667),
    ("DKNAALKAEIAALKAEIAALEAENAALEG [4H3651-AA]", "interaction score", -0.388),
    ("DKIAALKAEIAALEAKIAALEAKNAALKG [4H2600-AA]", "interaction score", 0.179),
    ("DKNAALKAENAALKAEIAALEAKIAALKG [4H3782-AA]", "interaction score", -1.38),
]

A. DKIAALKAENAALEAKNAALKAKIAALKG [4H2750-AA]
B. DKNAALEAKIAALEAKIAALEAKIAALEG [4H3365-AA]
C. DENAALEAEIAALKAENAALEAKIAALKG [4H1110-AA]
D. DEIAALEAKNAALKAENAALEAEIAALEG [4H465-AA]
E. DEIAALEAKNAALKAKIAALEAKIAALKG [4H486-AA]
Parameters: sort_field (interaction score), sort_dir (desc). Lab note: final answer is the ordered label list. C, D, E, A, B
(C: 1.28, D: 0.877, E: -0.289, A: -0.465, B: -1.67)
